molecular target: T1, Recombinant Human TNF-α/TNFSF1A (human, UniProt P01375 77-233); assay: SPR (Biacore), antibody captured, TNF-α in solution
T1 construct: Bought reagent (R&D Systems 210-TA); also called hTNF-α; huTNF-α
T1 sequence (P01375 77-233 limits assumed): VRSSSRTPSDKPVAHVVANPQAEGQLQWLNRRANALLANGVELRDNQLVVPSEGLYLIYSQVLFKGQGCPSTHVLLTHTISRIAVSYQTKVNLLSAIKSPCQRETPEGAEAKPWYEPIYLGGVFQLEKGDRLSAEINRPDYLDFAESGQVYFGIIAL
Exercise: for every item that follows, state its recorded kon.
Give bare numbers, in M⁻¹ s⁻¹.

Use these answered entries as a reference point.
{"binder": "AB250 (antibody, V domains shown, also called hMAK195VH.1b / hMAK195VL.2) VH: EVQLQESGPGLVKPSETLSLTCTVSGFSLSDYGVNWIRQPPGKGLEWIGMIWGDGSTDYDSTLKSRVTISKDTSKNQFSLKLSSVTAADTAVYYCAREWHHGPVAYWGQGTLVTVSS VL: EIVMTQSPATLSLSPGERATLSCKASQAVSSAVAWYQQKPGQAPRLLIYWASTRHTGIPARFSGSGSGTDFTLTISSLQPEDFAVYYCQQHYSTPFTFGQGTKLEIK", "recorded-result": "2e+06"}
{"binder": "AB248 (antibody, V domains shown, also called hMAK195VH.1b / hMAK195VL.1) VH: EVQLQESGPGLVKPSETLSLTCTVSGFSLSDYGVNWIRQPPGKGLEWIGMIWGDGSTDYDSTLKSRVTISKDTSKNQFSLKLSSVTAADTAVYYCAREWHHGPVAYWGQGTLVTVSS VL: DIQMTQSPSSLSASVGDRVTITCKASQAVSSAVAWYQQKPGKAPKLLIYWASTRHTGVPSRFSGSGSGTDFTLTISSLQPEDFATYYCQQHYSTPFTFGQGTKLEIK", "recorded-result": "1.82e+06"}

Okay, now this binder:
Lab note: AB246 (antibody, V domains shown, also called hMAK195VH.1a / hMAK195VL.2) VH: EVQLQESGPGLVKPSETLSLTCTVSGFSLSDYGVNWVRQPPGKGLEWLGMIWGDGSTDYDSTLKSRLTISKDNSKSQISLKLSSVTAADTAVYYCAREWHHGPVAYWGQGTLVTVSS VL: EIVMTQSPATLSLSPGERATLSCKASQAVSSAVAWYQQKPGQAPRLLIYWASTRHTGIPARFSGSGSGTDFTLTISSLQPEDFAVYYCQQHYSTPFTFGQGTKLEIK gave kon of 2.61e+06

Entry source: patent US20110250130A1
